cytotoxicity at 70.5 h for assorted compounds
assay-remarks: Human HepG2 cell viability assay in 384 well format
Assay type: toxicity, cell-based
Set-up: dose 125 nL, time 70.5 hour; concentration not given beside the values
cond: HepG2 cells, read-out: Inhibition
value-type: cytotoxicity at 70.5 h (%)

| compound | quantitative-result |
| --- | --- |
| Cc1cnc2n1CCN(C)C21CCN(CC2CC2)CC1 | -0.923 |
| NC(=O)c1ccc(CNC2CC2)cc1 | 16 |
| Cc1ccc2c(c1)C(=O)NCC1(CCN(C(=O)c3csc(C)c3)CC1)O2 | -9.12 |
| Cc1cc(C)c2[nH]c(C)c(CC(=O)N(C)CCN(C)C)c2c1 | 1.29 |
| CC(C)N1CC2(CCC1=O)CCN(C(=O)c1cc(F)ccc1Cl)CC2 | -5.5 |
| C[C@H]1C[C@H]2CN(C(=O)CCc3ccccc3)CC[C@H]2O1 | -11.5 |
| c1ccc2sc(N3CCCC4(CCOC4)C3)nc2c1 (centres undefined) | -2.11 |
| CN1CCCC1CNC(=O)CCCOc1cccc(Br)c1 (centres undefined) | 17.7 |
| Cc1noc(C)c1CN1CCn2c(COC(C)C)nnc2C1 | -10.8 |
| CCn1ncnc1C1CC(=O)NCc2nc(N3CCCC3)sc21 (centres undefined) | -21.6 |
| O=C(Nc1ccccc1-c1cccs1)N1CCOCC1 | -13.2 |
| O=C(c1cc[nH]n1)N1CCC2(CC1)CC(Oc1cccnc1)CO2 (centres undefined) | 8.68 |
| c1ccc2oc(CN3CCCC3c3noc(C4CC4)n3)nc2c1 (centres undefined) | -11.3 |
| COCCN1CCO[C@@H]2CN(Cc3ccccn3)C[C@@H]2C1 | 2.26 |
| O=C1CO[C@H]2CN(Cc3cccc4[nH]ccc34)C[C@@H]2N1C1CCOCC1 | 5.48 |
| CC(C)(O)CSCCNC(=O)c1cc(F)ccc1F | 12.9 |
| O=C(c1ccncc1F)N1CC2CC1(C(=O)N1CCCC1)C2 | -11.2 |
| CCn1ccnc1CN1CCN(Cc2cnc(C)cn2)CC1C (centres undefined) | 4.47 |
| CCc1noc(C(C)N2CCC(O)CC2)n1 (centres undefined) | -10.2 |
| O=C(CCNC(=O)C1CCCC1)NCc1cccnc1-n1cncn1 | -9.48 |
| Cc1ccc2nc(C)c(C)c(C(=O)NCCCn3cnnc3)c2c1 | -2.61 |
| Cn1c(Cn2cccn2)nnc1C1CCN(Cc2cccnc2)CC1 | -3.7 |
| CN(C)CCNC(=O)c1ccc2ccc(N(C)CC3CC3)n2c1 | -0.944 |
| Cc1nc(-c2ncc(C(=O)NCCNc3ncccc3C)c(O)n2)cs1 | -2.82 |

###

assay-remarks: Human HepG2 cell viability assay in 384 well format
Format: toxicity, cell-based
Parameters: dose 125 nL, time 70.5 hour; concentration not given beside the values
cond: HepG2 cells, read-out: Inhibition

| compound | cytotoxicity at 70.5 h, % |
| --- | --- |
| CNC(=O)CN1CCOCC2(CCCN(Cc3ccsc3)C2)C1 (stereo unspecified) | -19.5 |
| CN1CCCC(c2cncc(-c3cccc(C(F)(F)F)c3)n2)C1 (stereo unspecified) | -8.63 |
| O=C(c1ccc(F)cc1F)N1C[C@@H](O)[C@H](N2CCOCC2)C1 | -2.76 |
| NC(=O)N1CCCC1COC(=O)c1cc(F)ccc1F (stereo unspecified) | -1.3 |
| O=C(O)c1c(-c2cncnc2)ncc2c1CCN(CC1CCOC1)C2 (stereo unspecified) | -4.73 |
| c1cc(CNCC2OCCc3cn(CC4CC4)nc32)cs1 (stereo unspecified) | -4.34 |

###

Recorded cytotoxicity at 70.5 h, one value per entry.
assay-remarks: Human HepG2 cell viability assay in 384 well format
Type: toxicity, cell-based
Set-up: dose 125 nL, time 70.5 hour; concentration not given beside the values
cond: HepG2 cells, read-out: Inhibition

| compound | cytotoxicity at 70.5 h, % |
| --- | --- |
| CN1CCC(N(Cc2ccco2)S(=O)(=O)c2cc(Br)ccc2Br)CC1 | 1.03 |
| O=C(NCCc1csc(-c2ccncc2)n1)C1CC(=O)N(C2CC2)C1 (stereo not given) | -3.67 |
| Cc1ccc(CN2C[C@@H]3COC[C@H](C(=O)N4CCCCO4)[C@@H]3C2)o1 | -8.64 |
| Cc1ncc(CN2CCN(C(=O)C3CCC3)[C@@H]3CS(=O)(=O)C[C@@H]32)cn1 | -16.2 |
| CN1CCC(N(C)c2ccccc2CNCc2ccco2)CC1 | 30.3 |

###

assay-remarks: Human HepG2 cell viability assay in 384 well format
Assay type: toxicity, cell-based
Design: dose 125 nL, time 70.5 hour; concentration not given beside the values
cond: HepG2 cells, read-out: Inhibition
value-type: cytotoxicity at 70.5 h (%)

| compound | value-type | u | quantitative-result |
| --- | --- | --- | --- |
| Cc1nnc(NC(=O)CN2CCc3nn(C(C)C)c(=O)cc3C2)s1 | cytotoxicity at 70.5 h | % | -6.14 |
| N#Cc1cccc(S(=O)(=O)NC(=O)COC2CCCC2)c1 | cytotoxicity at 70.5 h | % | 11.3 |
| O=C1CCC(C(=O)Nc2ccc(=O)n(Cc3ccc(Cl)c(Cl)c3)c2)N1 (stereo unspecified) | cytotoxicity at 70.5 h | % | -16.6 |
| CCCS(=O)(=O)N1CCCC1c1cccc(N(C)C)c1 (stereo unspecified) | cytotoxicity at 70.5 h | % | -11.2 |
| CCCNc1ncc(CN2CCN(C)C(=O)C2C)cn1 (stereo unspecified) | cytotoxicity at 70.5 h | % | 16 |
| CCN(Cc1ccc2c(c1)OCCO2)C(=O)NCc1cc[nH]n1 | cytotoxicity at 70.5 h | % | -20.9 |
| COCc1nc2cc(NCc3ccncc3)ccc2o1 | cytotoxicity at 70.5 h | % | 16.6 |
| Cc1oc2c(c1C(=O)N1C[C@H](O)[C@]3(CCCO3)C1)CCCC2 | cytotoxicity at 70.5 h | % | -3.22 |
| COCC1c2nnn(CC3CC3)c2CCN1C(=O)Cc1cccs1 (stereo unspecified) | cytotoxicity at 70.5 h | % | -8.15 |
| CN(C)C(=O)c1nc2c(s1)CCN(C(=O)c1ccc(Cl)cc1)CC2 | cytotoxicity at 70.5 h | % | -2.44 |
| Cc1occc1C(=O)N1C[C@@H](C(=O)NCc2ccco2)C[C@H]2OCC[C@H]21 | cytotoxicity at 70.5 h | % | -10.4 |

###

assay-remarks: Human HepG2 cell viability assay in 384 well format
Format: toxicity, cell-based
Design: dose 125 nL, time 70.5 hour; concentration not given beside the values
cond: HepG2 cells, read-out: Inhibition

| molecule | cytotoxicity at 70.5 h / % |
| --- | --- |
| CCc1cnc(N)nc1N1CCN(C(C)=O)CC1 | -15.8 |
| CC(C)N1CCC(c2cc(C(F)(F)F)n3ccnc3n2)CC1 | 12.6 |
| O=C(NC1CCS(=O)(=O)C1)c1sccc1-c1ccc(F)cc1 (centres undefined) | -7.53 |
| CC(C)NC(=O)COc1nc(C(C)(C)C)no1 | -6.41 |
| COc1ccc(C2CCCN2C(=O)NCCCn2cccn2)cc1 (centres undefined) | -11 |
| O=C(CSc1ccccc1)N1C[C@H]2CC[C@@H]1CN(Cc1ccncc1)C2 | -4.9 |
| O=C([C@H]1CN(Cc2ccncc2)C[C@H]2OCC[C@@H]12)N1CCCCO1 | -14.4 |
| COc1cccc(CNC(=O)C(c2cccc(F)c2)N2CCOCC2)c1 (centres undefined) | 10.7 |
| CSCc1nc(CCNC(=O)c2cnn(C(C)C)c2)cs1 | -1.66 |
| O=C(c1ccoc1)N1CCC2(C1)CN(c1ncc(F)cn1)C2 | -0.91 |
| CC(C)CC(C)(CNC(=O)c1cnccn1)NC(=O)c1cnccn1 (centres undefined) | -0.237 |
| CS(=O)(=O)NC1CCCN(C(=O)Nc2ccccc2Cn2cccn2)C1 (centres undefined) | 14.4 |
| Cc1ccc2cc(C(=O)N3CCN(C(=O)c4ccoc4)CC3)[nH]c2c1 | 8.19 |
| CCc1nc(CN2CCN(C(=O)c3cc(C)no3)CC2)cs1 | -8.13 |
| CCc1nnsc1C(=O)N1CCCN(Cc2cnn(CC)c2)CC1 | -7.53 |
| CC1c2cccn2CCN1C(=O)CCc1nc(C2CC2)no1 (centres undefined) | -8.57 |
| O=C(NCCN1CCOCC1)c1ccc(-c2ccc(F)cc2)nc1O | -3.89 |
| CC(C)O[C@H]1CN(Cc2cnc3c(-c4ccccc4)cnn3c2)C[C@@H]1O | -5.99 |
| O=C(NCCc1cccs1)NCC(O)c1cccc(F)c1 (centres undefined) | -7.4 |
| CC(c1ccc(Cl)cc1)N1CCN(CCS(N)(=O)=O)CC1 (centres undefined) | -0.779 |
| CCS(=O)(=O)N1CCC2(CN(Cc3ccc(C)o3)C2)C1 | -13.4 |
| CC(C)c1ccc(S(=O)(=O)N2CSCC2C(=O)NCC(F)(F)F)cc1 (centres undefined) | -7.38 |
| c1ccc2c(N3CCCC3Cn3cccn3)ncnc2c1 (centres undefined) | 4.1 |
| Cc1c(CNC2CCN(c3ccccc3OC(F)F)C2)cnn1C (centres undefined) | -3.92 |
